Biological target: Human STING HAQ (Homo sapiens, UniProt Q86WV6, G230A/H232R/R293Q/R71H)
Sequence (Q86WV6 whole entry R71H/G230A/H232R/R293Q): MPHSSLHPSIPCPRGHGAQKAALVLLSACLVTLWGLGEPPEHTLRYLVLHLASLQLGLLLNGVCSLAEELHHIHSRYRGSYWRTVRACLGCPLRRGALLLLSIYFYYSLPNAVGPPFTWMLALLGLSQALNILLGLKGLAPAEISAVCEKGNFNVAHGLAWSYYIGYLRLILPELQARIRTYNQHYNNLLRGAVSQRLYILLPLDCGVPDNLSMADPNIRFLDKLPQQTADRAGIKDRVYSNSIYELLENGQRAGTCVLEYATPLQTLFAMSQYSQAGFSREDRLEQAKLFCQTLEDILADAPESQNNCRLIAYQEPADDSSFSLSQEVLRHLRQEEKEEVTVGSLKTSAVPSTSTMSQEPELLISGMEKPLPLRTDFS
Assay: HAQ STING agonist activity reporter assay (THP1-Dual cells)
Settings: hSTING EC50 (μM) HAQ
The following compounds are listed with their measured EC50 values.
Report as a plain number; the unit µM is understood.

Some solved entries appear below for comparison.
>>> test_value("Nc1nc2c3ncn(c3n1)[C@@H]1O[C@@H]3COP(O)(=S)O[C@H]4[C@@H](F)[C@@H](O[C@@H]4COP(O)(=S)O[C@H]3[C@H]1F)n1cnc3c(ncnc31)NC/C=C/CO2 (some centres unmarked) [Compound 23]")
62.3
>>> test_value("Nc1nc2c3ncn(c3n1)[C@@H]1O[C@@H]3COP(O)(=S)O[C@H]4[C@@H](F)[C@@H](O[C@@H]4COP(O)(=S)O[C@H]3[C@H]1F)n1cnc3c(ncnc31)NC/C=C/CO2 (single isomer, unassigned) [Compound 21]")
83.3
>>> test_value("O=P1(O)OC[C@H]2OC3[C@H](F)[C@@H]2O[P@@](O)(=S)OC[C@H]2O[C@H]([C@H](F)[C@@H]2O1)n1cnc2c(ncnc21)NC/C=C/CNc1ncnc2c1ncn23")
9.8
>>> test_value("O=P1(O)OC[C@H]2OC3[C@H](F)[C@@H]2O[P@](O)(=S)OC[C@H]2O[C@H]([C@H](F)[C@@H]2O1)n1cnc2c(ncnc21)NC/C=C/CNc1ncnc2c1ncn23")
10.2

Query compound follows.
What value of measured EC50 is listed for Nc1nc2c3ncn(c3n1)[C@@H]1O[C@@H]3COP(O)(=S)O[C@H]4[C@@H](F)[C@@H](O[C@@H]4COP(O)(=S)O[C@H]3[C@H]1F)n1cnc3c(ncnc31)NC/C=C/CO2 (single isomer, unassigned) [Compound 22] ?
41.2

* * *

Biological target: AQ Human STING (Homo sapiens, UniProt Q86WV6, G230A/H232R/R293Q)
Sequence (Q86WV6 whole entry G230A/H232R/R293Q): as the sequence (Q86WV6 whole entry R71H/G230A/H232R/R293Q) above, with H71R counted along it
Test: STING variant specific reporter assay, AQ-STING (THP1-Dual KO-STING cells)
Conditions: read-out: Human STING EC50 (μM) AQ; Table 4; ammonium salt form of each compound
READOUT KIND: EC50

Given the entry O=[P@@]1(S)OC[C@H]2OC3[C@H](O)[C@@H]2O[P@](=O)(S)OC[C@H]2O[C@H]([C@H](O1)[C@@H]2O)n1cnc2c(ncnc21)NC/C=C/CNc1ncnc2c1ncn23 , report its measured EC50.
> 100 µM

* * *

Readings of EC50 for the listed molecules
Target: Human STING HAQ (Homo sapiens, UniProt Q86WV6, G230A/H232R/R293Q/R71H)
Experiment: HAQ STING agonist activity reporter assay (THP1-Dual cells)
Settings: hSTING EC50 (μM) HAQ, Table 8; ammonium salt form of each compound
The reply must contain the numeric value and, after it, the unit.

>>> test_value("O=P1(S)N[C@@H]2[C@H]3COP(=O)(S)N[C@H]4[C@@H](O)[C@@H](O[C@@H]4CO1)n1cnc4c(ncnc41)NC/C=C/CNc1ncnc4c1ncn4C(O3)[C@@H]2O (some centres unmarked) [Compound 39]")
"29.6 µM"

Identify the measured EC50 of O=[P@]1(S)N[C@@H]2[C@H]3CO[P@](=O)(S)N[C@H]4[C@@H](O)[C@@H](O[C@@H]4CO1)n1cnc4c(ncnc41)NC/C=C/CNc1ncnc4c1ncn4C(O3)[C@@H]2O [Compound 38] for Human STING HAQ (Homo sapiens, UniProt Q86WV6, G230A/H232R/R293Q/R71H).
79.9 µM

* * *

Molecular target: REF Human STING (Homo sapiens, UniProt Q86WV6)
Sequence (Q86WV6 whole entry): as the sequence (Q86WV6 whole entry R71H/G230A/H232R/R293Q) above, with H71R, A230G, R232H, Q293R counted along it
Test: STING variant specific reporter assay, REF-STING (THP1-Dual KO-STING cells)
READOUT KIND: EC50 (µM)
All answers are understood in µM, so give the number only.

Entry under review: O=[P@]1(S)OC[C@H]2OC3[C@H](F)[C@@H]2O[P@](=O)(S)OC[C@H]2O[C@H]([C@H](O1)[C@@H]2O)n1cnc2c(ncnc21)NC/C=C/CNc1ncnc2c1ncn23 . Reported EC50?
66.7

For the compound shown here, O=[P@@]1(S)OC[C@H]2OC3[C@H](F)[C@@H]2O[P@](=O)(S)OC[C@H]2O[C@H]([C@H](O1)[C@@H]2O)n1cnc2c(ncnc21)NC/C=C/CNc1ncnc2c1ncn23 , give the reported EC50.
66.7

Need EC50, item O=[P@]1(S)OC[C@H]2OC3[C@H](F)[C@@H]2O[P@](=O)(S)OC[C@H]2O[C@H]([C@H](F)[C@@H]2O1)n1cnc2c(ncnc21)NCCCCNc1ncnc2c1ncn23
42

Value lookup for EC50; key = O=P1(O)OC[C@H]2O[C@@H]3[C@H](F)[C@@H]2OP(=O)(O)OC[C@H]2OC([C@H](F)[C@@H]2O1)n1cnc2c(ncnc21)NC/C=C/CNc1ncnc2c1ncn23
31.7

* * *

Target: Human STING HAQ (Homo sapiens, UniProt Q86WV6, G230A/H232R/R293Q/R71H)
Test: HAQ STING agonist activity reporter assay (THP1-Dual cells)
Conditions: hSTING EC50 (μM) HAQ, Table 7; ammonium salt form of each compound
READOUT KIND: EC50 (µM)
Number only, in µM; omit the unit.

Bench note: what EC50 did O=P1(S)OC[C@H]2OC3[C@H](OP(=O)(S)OC[C@H]4O[C@H]([C@H](O1)[C@@H]4O)n1cnc4c(ncnc41)NC/C=C/CNc1ncnc4c1ncn43)[C@@H]2O (stereo partly shown) show?
20.2

* * *

Target: WT Human STING (Homo sapiens, UniProt Q86WV6, H232R)
Sequence (Q86WV6 whole entry H232R): as the sequence (Q86WV6 whole entry R71H/G230A/H232R/R293Q) above, with H71R, A230G, Q293R counted along it
Experiment: STING variant specific reporter assay, WT-STING (THP1-Dual KO-STING cells)
Conditions: Human STING EC50 (μM) WT, Table 5; ammonium salt form of each compound
READOUT KIND: EC50 (µM)
Expressed in µM, but write only the number.

Worked cases, answers included:
>>> test_value("O=P1(S)OC[C@H]2O[C@@H]3[C@H](F)[C@@H]2OP(=O)(S)OC[C@H]2OC([C@H](F)[C@@H]2O1)n1cnc2c(ncnc21)NCC/C=C/CNc1ncnc2c1ncn23 (single isomer, unassigned) [Compound 8]")
68.7
>>> test_value("O=P1(O)OC[C@H]2O[C@@H]3[C@H](F)[C@@H]2OP(=O)(O)OC[C@H]2OC([C@H](F)[C@@H]2O1)n1cnc2c(ncnc21)NC/C=C/CNc1ncnc2c1ncn23")
18

Consider the additional compound presented here.
So what's the measured EC50 for this one? O=[P@]1(S)OC[C@H]2OC3[C@H](F)[C@@H]2O[P@](=O)(S)OC[C@H]2O[C@H]([C@H](F)[C@@H]2O1)n1cnc2c(ncnc21)NCCCCNc1ncnc2c1ncn23
5.7

# credit: patent US20200055883A1
